Recorded below: HepSE_hepatitis, system Hepatotoxicity.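 Further: Hepatitis-related hepatic side effect score taken from the training data of DILIps, a prediction system for drug-induced liver injury.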 Further: call rule not given here.
API note: the answer field is a bare number with no unit suffix.

Worked examples follow.
{"columns": ["Compound", "HepSE_hepatitis"],
 "data": [
  ["Cc1ncc2n1-c1ccc(Cl)cc1C(c1ccccc1F)=NC2 [MIDAZOLAM]", 0],
  ["COc1cc(NCc2ccc3nc(N)nc(N)c3c2C)cc(OC)c1OC [TRIMETREXATE]", 0],
  ["CC[N+](C)(C)Cc1ccccc1Br [BRETYLIUM]", 0],
  ["COc1cc2ncnc(Nc3ccc(F)c(Cl)c3)c2cc1OCCCN1CCOCC1 [GEFITINIB]", 0],
  ["CCCCC[C@H](O)/C=C/[C@H]1[C@H](O)CC(=O)[C@@H]1C/C=C\\CCCC(=O)O [DINOPROSTONE]", 0]
]}

Here is another compound to look at.
HepSE_hepatitis of CCOC(=O)C1=C(COCCN)NC(C)=C(C(=O)OC)C1c1ccccc1Cl (stereo unspecified) [AMLODIPINE] on Hepatotoxicity? 1
